assay_details: Solubility limit of acceptors
Assay type: physicochemical
experimental_conditions: in kinetic assay; read-out: solubility limit

compound_structure: CC(C)=CCc1cc(C(=O)Nc2c(O)c3ccc(O)c(C)c3oc2=O)ccc1O
solubility, mM: 5
